measured.on: Human neutrophil elastase (HNE) (Homo sapiens, UniProt P08246)
Construct: HNE (EC 3.4.21.37) from human leukocytes was purchased; purchased Innovative Research Company (Novi, Michigan); host or cells: human leukocytes (natural source)
Sequence (P08246 30-247 limits assumed): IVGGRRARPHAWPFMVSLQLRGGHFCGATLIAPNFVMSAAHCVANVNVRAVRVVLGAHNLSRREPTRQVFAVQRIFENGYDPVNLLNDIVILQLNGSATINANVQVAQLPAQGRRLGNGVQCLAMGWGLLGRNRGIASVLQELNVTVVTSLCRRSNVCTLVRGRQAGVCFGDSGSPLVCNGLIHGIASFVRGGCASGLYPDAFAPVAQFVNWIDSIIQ
test.name: HNE activity inhibitory bioassay (MeO-Suc-Ala-Ala-Pro-Val-pNA hydrolysis, absorbance 405 nm)
Assay type: biochemical
condition.parameters: 100 µM compound; n = 3
Short version: Anti-HNE activity, inhibitory ratio at least 80% is 1 (yes), less is 0 (no).

Please tell me: is the molecule `C[C@H]1[C@H](C)CC[C@]2(C(=O)O)CC[C@]3(C)C(=CC[C@@H]4[C@@]5(C)CC[C@H](O)C(C)(C)[C@@H]5CC[C@]43C)[C@H]12` at or over 80% in terms of Anti-HNE activity, inhibitory ratio?
1 (yes)

Please tell me: is the molecule `C=C(C)[C@@H]1CC[C@]2(C(=O)O)CC[C@]3(C)[C@H](CC[C@@H]4[C@@]5(C)CC[C@H](O)C(C)(C)[C@@H]5CC[C@]43C)[C@@H]12` at or over 80% in terms of Anti-HNE activity, inhibitory ratio?
1 (yes)

Please tell me: is the molecule `CC1(C)[C@@H](O)CC[C@]2(C)[C@H]3C(=O)C=C4[C@@H]5C[C@@](C)(C(=O)O)CC[C@]5(C)CC[C@@]4(C)[C@]3(C)CC[C@@H]12` at or over 80% in terms of Anti-HNE activity, inhibitory ratio?
0 (no)

Please tell me: is the molecule `C=C(C)[C@@H]1CC[C@]2(C)CC[C@]3(C)[C@H](CC[C@@H]4[C@@]5(C)CC[C@H](O)C(C)(C)[C@@H]5CC[C@]43C)[C@@H]12` at or over 80% in terms of Anti-HNE activity, inhibitory ratio?
1 (yes)

====

For each entry below, report its pIC50 value.
measured.on: Human neutrophil elastase (HNE) (Homo sapiens)
Construct: HNE (EC 3.4.21.37) from human leukocytes was purchased
test.name: HNE activity inhibitory bioassay (MeO-Suc-Ala-Ala-Pro-Val-pNA hydrolysis, absorbance 405 nm)
condition.parameters: in vitro HNE assay; read-out: IC50, HNE inhibition
pIC50: −log10 of the molar value.

Recall the recorded pIC50 for `C=C(C)[C@@H]1CC[C@]2(C)CC[C@]3(C)[C@H](CC[C@@H]4[C@@]5(C)CC[C@H](O)C(C)(C)[C@@H]5CC[C@]43C)[C@@H]12` with Human neutrophil elastase (HNE) (Homo sapiens) and state it.
~5.09

Recall the recorded pIC50 for `C=C(C)[C@@H]1CC[C@]2(C(=O)O)CC[C@]3(C)[C@H](CC[C@@H]4[C@@]5(C)CC[C@H](O)C(C)(C)[C@@H]5CC[C@]43C)[C@@H]12` with Human neutrophil elastase (HNE) (Homo sapiens) and state it.
~5.17

Recall the recorded pIC50 for `CC1(C)[C@@H](O[C@H]2O[C@H](C(=O)O)[C@@H](O)[C@H](O)[C@H]2O[C@@H]2O[C@H](C(=O)O)[C@@H](O)[C@H](O)[C@H]2O)CC[C@]2(C)[C@H]3C(=O)C=C4[C@@H]5C[C@@](C)(C(=O)O)CC[C@]5(C)CC[C@@]4(C)[C@]3(C)CC[C@@H]12` with Human neutrophil elastase (HNE) (Homo sapiens) and state it.
~4.56

Recall the recorded pIC50 for `CC1(C)[C@@H](O)CC[C@]2(C)[C@H]3C(=O)C=C4[C@@H]5C[C@@](C)(C(=O)O)CC[C@]5(C)CC[C@@]4(C)[C@]3(C)CC[C@@H]12` with Human neutrophil elastase (HNE) (Homo sapiens) and state it.
~4.43

Recall the recorded pIC50 for COC(=O)[C@]12CCC(C)(C)C[C@H]1[C@H]1C(=O)C=C3[C@@]4(C)C=C(C#N)C(=O)C(C)(C)[C@@H]4CC[C@@]3(C)[C@]1(C)CC2 [CDDO-Me, reference compound] with Human neutrophil elastase (HNE) (Homo sapiens) and state it.
4.78
